Assignment: determine reported CDC, RL EC50 for the given binders.
Target: T1, human CD20 (human, UniProt P11836 1-297)
T1 sequence: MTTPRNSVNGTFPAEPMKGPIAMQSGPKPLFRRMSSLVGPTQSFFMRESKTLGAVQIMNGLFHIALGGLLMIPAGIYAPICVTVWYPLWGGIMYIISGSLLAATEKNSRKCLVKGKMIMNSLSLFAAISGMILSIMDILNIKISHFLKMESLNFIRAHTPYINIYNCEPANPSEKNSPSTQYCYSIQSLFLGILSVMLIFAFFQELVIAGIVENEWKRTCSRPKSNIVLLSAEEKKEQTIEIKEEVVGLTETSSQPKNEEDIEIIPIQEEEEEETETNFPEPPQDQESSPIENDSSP
Assay: cell-based or functional assay
Give just the numeric value; nM need not be written.

Entry 2B7-7 (antibody, V domains shown, Fully human IgG, constant region not specified; also called 2B7-7N) VH: EVQLVESGGGLVQPGRSLRLSCAASGFTFRDYTMHWVRQGPGKGLEWVSGISWNSDYIGYADSVKGRFTISRDNAKNSLYLQMNSLRVEDTALYYCAKLSGTYRDYFYGVDVWGQGTTVTVSS VL: EIVLTQSPATLSLSPGERAALSCRASQSVSNYLAWYQQKPGQAPRLLIYDASNRATGIPARFSGSGSGTDFTLTISSLEPEDFAVYYCQQRSNWPLTFGGGTKVEIR has what CDC, RL EC50?
1.03

Entry 6F6-1 (antibody, V domains shown, Fully human IgG, constant region not specified; also called 6F6-1N) VH: AVQLVESGGGLVQPGRSLRLSCAASGFTFRDYAMHWVRQGPGKGLEWVSGISWNTDYIGYADSVKGRFTISRDNAKNSLYLQMNSLRPEDTALYYCAKDARYGRDNYYGMDVWGQGTTVTVSS VL: EIVMTQSPATLSVSPGERATLSCRASQSVSHNLAWYQQKPGQAPRLLIYGAYTRATGIPDRFSGTGSGTEFTLTISSLQSEDFAVFYCQQYNNWPLTFGGGTKVEIK has what CDC, RL EC50?
1.2
